# testTarget: T1, human LAG-3 (full length, on the cell surface) (human, UniProt P18627 23-525)
# T1 construct: Full-length human LAG-3 expressed on cells; also called HEK293-hLAG-3; HEK293 cells transfected with LAG-3 gene
# T1 sequence: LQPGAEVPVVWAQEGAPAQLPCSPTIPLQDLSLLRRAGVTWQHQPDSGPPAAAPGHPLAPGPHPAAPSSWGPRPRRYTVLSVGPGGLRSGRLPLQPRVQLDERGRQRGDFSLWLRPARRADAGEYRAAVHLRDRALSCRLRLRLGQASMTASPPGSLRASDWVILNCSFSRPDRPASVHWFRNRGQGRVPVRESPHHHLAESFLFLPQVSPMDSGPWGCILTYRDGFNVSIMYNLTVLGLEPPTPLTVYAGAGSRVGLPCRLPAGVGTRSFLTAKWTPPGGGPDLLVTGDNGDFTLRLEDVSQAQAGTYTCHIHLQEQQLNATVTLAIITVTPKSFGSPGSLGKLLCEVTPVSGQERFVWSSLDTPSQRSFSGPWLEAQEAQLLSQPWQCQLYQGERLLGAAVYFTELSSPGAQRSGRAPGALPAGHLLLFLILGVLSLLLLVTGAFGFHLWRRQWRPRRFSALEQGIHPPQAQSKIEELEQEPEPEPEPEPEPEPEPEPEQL
# experimentNotes: FACS, HEK293-hLAG-3; 0.320 nM
propertyMeasured: Mean fluorescence intensity (MFI)
// units = MFI; emit number, no label

Item under review: 409D4E10 (mouse antibody purified from hybridoma) (antibody, V domains shown, also called mAb112-409D4E10) VH: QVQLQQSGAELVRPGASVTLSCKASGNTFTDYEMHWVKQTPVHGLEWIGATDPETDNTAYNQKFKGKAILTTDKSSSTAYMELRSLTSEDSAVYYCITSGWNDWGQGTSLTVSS VL: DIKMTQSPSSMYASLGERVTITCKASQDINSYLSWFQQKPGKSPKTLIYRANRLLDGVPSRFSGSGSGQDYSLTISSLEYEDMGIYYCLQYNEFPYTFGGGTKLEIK . Reported Mean fluorescence intensity?
13

Same lookup for 405B8H3 (mouse antibody purified from hybridoma) (antibody, V domains shown, also called mAb103-405B8H3; 405B81-13) VH: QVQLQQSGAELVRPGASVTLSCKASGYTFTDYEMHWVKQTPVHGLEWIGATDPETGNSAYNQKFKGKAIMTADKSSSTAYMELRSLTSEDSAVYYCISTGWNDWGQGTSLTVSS VL: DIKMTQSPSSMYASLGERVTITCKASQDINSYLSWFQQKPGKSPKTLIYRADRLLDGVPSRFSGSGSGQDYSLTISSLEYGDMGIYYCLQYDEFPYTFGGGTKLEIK , please.
24.7

Same lookup for 105F1E10 (mouse antibody purified from hybridoma) (antibody, V domains shown, also called mAb009-105F1E10) VH: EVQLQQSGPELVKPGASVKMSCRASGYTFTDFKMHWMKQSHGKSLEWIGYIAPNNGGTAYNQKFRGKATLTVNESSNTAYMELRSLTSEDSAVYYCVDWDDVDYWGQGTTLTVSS VL: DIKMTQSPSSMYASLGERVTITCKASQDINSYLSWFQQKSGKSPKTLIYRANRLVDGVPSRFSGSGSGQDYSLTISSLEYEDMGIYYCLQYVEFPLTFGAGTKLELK , please.
23.3

Same lookup for 556F6B8 (mouse antibody purified from hybridoma) (antibody, V domains shown, also called mAb123-556F6B8) VH: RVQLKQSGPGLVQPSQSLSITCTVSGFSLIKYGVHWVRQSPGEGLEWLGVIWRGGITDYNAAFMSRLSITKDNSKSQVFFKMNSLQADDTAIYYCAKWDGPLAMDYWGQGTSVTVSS VL: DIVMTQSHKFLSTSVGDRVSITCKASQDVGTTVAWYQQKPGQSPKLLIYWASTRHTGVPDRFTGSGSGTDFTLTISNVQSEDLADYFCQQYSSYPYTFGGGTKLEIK , please.
16.1
